# ASSAY_DETAILS: in vitro
# MEASUREMENT_SETUP: rat, gh3-tre-luc cells, AC50 (uM) modified / 1000, Tox21_110001=Tox21_201627; viability, 1 nM T3 present, 24 h
Structures can show the parent of a compound that is named as a salt.
QUANTITY_NAME: CC50 at 24 h

Give the measured CC50 at 24 h of Nc1ccc(Cl)cc1 [4-Chloroaniline hydrochloride] . > 90 µM

====

Give CC50 at 24 h for every item shown.
# ASSAY_DETAILS: in vitro
# MEASUREMENT_SETUP: rat, gh3-tre-luc cells, AC50 (uM) modified / 1000

Consider the reported CC50 at 24 h for these molecules:
c1ccc2c(c1)cc1ccc3cccc4ccc2c1c34	> 90 µM
NNc1ccc(C(=O)O)cc1 [4-Hydrazinobenzoic acid]	> 90 µM
O=C(N[C@@H](c1ccccc1)[C@@H]1CCCCN1)c1cccc(C(F)(F)F)c1Cl	19.9 µM
Cc1cccc(C)c1[N+](=O)[O-]	> 90 µM
Nc1ccc(Cl)c(N)c1	> 90 µM

Give me CC50 at 24 h for each of these molecules, listed below.
1. CC(=O)Oc1ccc(C(C)=O)cc1 [4-Acetylphenyl acetate]
2. CCCCCCCCCCCC(=O)N(CCO)CCO [N,N-Bis(2-hydroxyethyl)dodecanamide]
3. CCCCCCCCCCCCCCCCCC(=O)OC[C@@H](O)[C@H]1OC[C@H](O)[C@H]1O [Anhydrosorbitol stearate]
4. CCCCOC(=O)c1ccccc1C(=O)OCC(CC)CCCC (stereo not drawn) [Butyl 2-ethylhexyl phthalate]
5. COC(C)(C)CCC[C@H](C)C/C=C/C(C)=C/C(=O)OC(C)C
6. OC[C@H]1O[C@H](O[C@H]2O[C@H](CO)[C@@H](O)[C@H](O)[C@H]2O)[C@H](O)[C@@H](O)[C@@H]1O [Trehalose dihydrate]

["> 100 µM", "42.5 µM", "> 50 µM", "> 90 µM", "70.9 µM", "> 90 µM"]

Give me CC50 at 24 h for each of these molecules, listed below.
1. CC1(C)O[C@@H]2C[C@H]3[C@@H]4C[C@H](F)C5=CC(=O)C=C[C@]5(C)[C@@]4(F)[C@@H](O)C[C@]3(C)[C@]2(C(=O)CO)O1 [Fluocinolone acetonide]
2. O=C1c2ccccc2-c2n[nH]c3cccc1c23
3. CC(C)(C)c1ccc(O)c(C(C)(C)C)c1
4. O=Cc1ccco1
5. O=C(O)c1cc(I)cc(I)c1I

> 50 µM
> 50 µM
47.6 µM
> 90 µM
> 100 µM

Give me CC50 at 24 h for each of these molecules, listed below.
1. C=CC(=O)OCCCCCCCC(C)C [Isodecyl acrylate]
2. Nc1ccc(Oc2ccc(N)cc2)cc1

> 90 µM
> 90 µM

====

# ASSAY_DETAILS: in vitro
# MEASUREMENT_SETUP: rat, gh3-tre-luc cells, AC50 (uM) modified / 1000, Tox21_110001=Tox21_300220; viability, 1 nM T3 present, 24 h
QUANTITY_NAME: CC50 at 24 h

Give the measured CC50 at 24 h of N#Cc1ccc(N(CC(N)=O)CC(F)(F)F)cc1C(F)(F)F [GSK232420A] . > 90 µM

====

# System: GH3-TRE-Luc cell line
# MEASUREMENT_SETUP: read-out: AC50 (uM) modified / 1000; Tox21_110001=Tox21_110630; viability, 1 nM T3 present, 24 h
QUANTITY_NAME: CC50 (µM)
One number for each entry, in µM.

Look up CC50 with GH3-TRE-Luc cell line for this compound: COc1cc([C@@H]2c3cc4c(cc3[C@@H](O[C@@H]3O[C@@H]5CO[C@@H](C)O[C@H]5[C@H](O)[C@H]3O)[C@H]3COC(=O)[C@H]23)OCO4)cc(OC)c1O [Etoposide] 6.45

====

# ASSAY_DETAILS: in vitro
# MEASUREMENT_SETUP: rat, gh3-tre-luc cells, AC50 (uM) modified / 1000, Tox21_110001=Tox21_303338; viability, 1 nM T3 present, 24 h
QUANTITY_NAME: CC50 at 24 h

Give the measured CC50 at 24 h of Cc1cc(Cl)ccc1OCCCC(=O)O . > 90 µM

====

# Tested on: GH3-TRE-Luc cell line
# MEASUREMENT_SETUP: read-out: AC50 (uM) modified / 1000; Tox21_110001=Tox21_112672; viability, 1 nM T3 present, 24 h
QUANTITY_NAME: CC50 (µM)
Numbers only, in µM.

Give the measured CC50 of CC(C)C[C@H](NC(=O)[C@H](Cc1ccccc1)NC(=O)c1cnccn1)B(O)O [Bortezomib] . 0.00954

====

# Tested on: GH3-TRE-Luc cell line
# MEASUREMENT_SETUP: read-out: AC50 (uM) modified / 1000; Tox21_110001=Tox21_303363; viability, 1 nM T3 present, 24 h
QUANTITY_NAME: CC50 (µM)
Give bare numbers, in µM.

Give the measured CC50 of O=c1c(O)c(-c2ccc(O)cc2)oc2cc(O)cc(O)c12 . 50

====

# ASSAY_DETAILS: in vitro
# MEASUREMENT_SETUP: rat, gh3-tre-luc cells, AC50 (uM) modified / 1000, Tox21_110001=Tox21_201036; viability, 1 nM T3 present, 24 h
QUANTITY_NAME: CC50 at 24 h

Give the measured CC50 at 24 h of OCCBr . > 90 µM

====

# ASSAY_DETAILS: in vitro
# MEASUREMENT_SETUP: rat, gh3-tre-luc cells, AC50 (uM) modified / 1000
Where a name gives a salt, the structure may show the parent alone.
Give CC50 at 24 h for every item shown.

Consider the reported CC50 at 24 h for these compounds:
CCCNC(C)(C)COC(=O)c1ccccc1 [Meprylcaine hydrochloride]	> 50 µM
O[C@@H]1CO[C@H]2[C@@H]1OC[C@@H]2O [Isosorbide]	> 50 µM
COC(OC)OC	> 90 µM

Give me CC50 at 24 h for each of these compounds, listed below.
1. NNS(=O)(=O)c1ccc(Oc2ccc(S(=O)(=O)NN)cc2)cc1 [4,4'-Oxybis(benzenesulfohydrazide)]
2. C=C(C)CCCC(C)CCO (stereo not shown)
3. CCC(C)(C)C1CCC(OC)CC1 (stereo not shown)
4. CCCCC(CC)COC(=O)COc1cc(Cl)c(Cl)cc1Cl (stereo not shown)
5. CCCCCCCCCCCCc1ccccc1S(=O)(=O)O [Sodium dodecylbenzenesulfonate]
6. C/C(C=O)=C\c1ccccc1

> 90 µM
> 90 µM
> 90 µM
> 90 µM
49.5 µM
> 90 µM

Give the measured CC50 at 24 h of CCOCC(C)O (stereo not shown) . > 90 µM

====

Give CC50 at 24 h for every item shown.
# ASSAY_DETAILS: in vitro
# MEASUREMENT_SETUP: rat, gh3-tre-luc cells, AC50 (uM) modified / 1000
Counter-ions that a name gives are not always drawn.

Consider the reported CC50 at 24 h for these molecules:
c1ccc2c(c1)Sc1ccccc1N2CCN1CCCC1 [Pyrathiazine]	19.5 µM
CCCCCCC(O)CCCCCCCCCCC(=O)O (stereo not shown) [12-Hydroxyoctadecanoic acid]	> 90 µM

Give me CC50 at 24 h for each of these molecules, listed below.
1. CC(C)CCCCCCN [Isononanamine]
2. CC1(C)[C@@H]2CC[C@@]1(C)[C@H](OC(=O)CSC#N)C2 [Thanite]

> 90 µM
> 50 µM

Give me CC50 at 24 h for each of these molecules, listed below.
1. CCCOC(=O)c1ccccc1O [Propyl salicylate]
2. N[C@H](Cc1c[nH]c2ccccc12)C(=O)O [d-Tryptophan]
3. CCCC(c1cc(C(C)(C)C)c(O)cc1C)c1cc(C(C)(C)C)c(O)cc1C
4. CC(C)N(C)C [Dimethylisopropylamine]
5. C[C@H]1NCc2cc(-c3ccc4c(=O)c(C(=O)O)cn(C5CC5)c4c3OC(F)F)ccc21 [Garenoxacin mesylate hydrate]

["> 50 µM", "> 90 µM", "3.97 µM", "> 90 µM", "> 50 µM"]

Give the measured CC50 at 24 h of CC(=O)Oc1cccc(C)c1 [m-Cresyl acetate] . > 50 µM

====

# ASSAY_DETAILS: in vitro
# MEASUREMENT_SETUP: rat, gh3-tre-luc cells, AC50 (uM) modified / 1000, Tox21_110001=Tox21_301778; viability, 1 nM T3 present, 24 h
QUANTITY_NAME: CC50 at 24 h

Give the measured CC50 at 24 h of COP(=S)(OC)Oc1ccc(Sc2ccc(OP(=S)(OC)OC)cc2)cc1 . > 90 µM
